Each entry below carries its reported Velvetleaf plant response rating.
Test system: velvetleaf (Abutilon theophrasti)
Test: Test C greenhouse herbicide test, pre- and postemergence
Assay type: in vivo
Details: Postemergence, 31 g ai/ha; 0 to 100 scale (0 no effect, 100 complete control)
Description: […]
reported_metric: Velvetleaf plant response rating

- Cc1cc(C)c2sc(C)c(-c3c(OC(=O)OC(C)C)c(C)nn(C)c3=O)c2c1 [Compound 67]: 70
- CCC(=O)Oc1c(C)nn(C)c(=O)c1-c1c(C)sc2ccc(C)cc12 [Compound 42]: 45
- Cc1ccc(-c2c(O)c(Br)nn(C)c2=O)c2ccccc12 [Compound 52]: 5
- Cc1ccc2sc(C)c(-c3c(O)c(C)nn(C)c3=O)c2c1 [Compound 1]: 80
- CCC(=O)Oc1c(C)nn(C)c(=O)c1-c1c(C)sc2c(C)cc(C)cc12 [Compound 28]: 70
- COc1nn(C)c(=O)c(-c2c(C)sc3ccccc23)c1O [Compound 33]: 10

====

Test system: blackgrass (Alopecurus myosuroides)
Assay: Test A greenhouse herbicide test, postemergence
Assay type: in vivo
Conditions: 125 g ai/ha, 0 to 100 scale, 0 no effect, 100 complete control
reported_metric: Plant response rating, Blackgrass

- CC(=O)Oc1c(C)nn(C)c(=O)c1-c1c(C)cc(C)c2ccccc12: 90
- Cc1ccc2sc(C)c(-c3c(OCC#N)c(C)nn(C)c3=O)c2c1: 10
- Cc1nn(C)c(=O)c(-c2ccc(Cl)c3ccccc23)c1OS(=O)(=O)N(C)C: 0
- Cc1ccc2ccccc2c1-c1c(O)c([N+](=O)[O-])nn(C)c1=O: 0
- Cc1cc(C)c2sc(C)c(-c3c(OCC#N)c(C)nn(C)c3=O)c2c1: 10
- CC(=O)Oc1c(C)nn(C)c(=O)c1-c1c([N+](=O)[O-])ccc2ccccc12: 20

====

Test system: galium (catchweed bedstraw, Galium aparine)
Experiment: Test C greenhouse herbicide test, pre- and postemergence
Format: in vivo
Details: Postemergence, 31 g ai/ha; scale 0 to 100 (0 no effect, 100 complete control)
Excerpt: […]
reported_metric: Plant response rating, Galium

• Cc1ccc2ccccc2c1-c1c(OC(=O)N2CCOCC2)c(Br)nn(C)c1=O = 0
• COC(=O)Oc1c(C)nn(C)c(=O)c1-c1c([N+](=O)[O-])ccc2ccccc12 = 90
• Cc1nn(C)c(=O)c(-c2c(C)sc3ccc(Cl)cc23)c1O = 95
• Cc1nn(C)c(=O)c(-c2cc(F)cc3ccccc23)c1OS(C)(=O)=O = 85
• CCC(=O)Oc1c(C)nn(C)c(=O)c1-c1ccc(Br)c2ccccc12 = 90
• Cc1nn(C)c(=O)c(-c2ccc(F)c3ccccc23)c1OC(=O)CC(F)(F)F = 95

====

Tested on: wheat (winter wheat, Triticum aestivum)
Assay: Test C greenhouse herbicide test, pre- and postemergence
Format: in vivo
Conditions: Postemergence, 125 g ai/ha; scale 0 to 100, 0 is no effect, 100 is complete control
Let's look at some compounds and their measured Plant response rating, Wheat.
reported_metric: Plant response rating, Wheat

• COc1nn(C)c(=O)c(-c2c(C)ccc3ccccc23)c1O = 0
• Cc1nn(C)c(=O)c(-c2ccc(F)c3ccccc23)c1OC(=O)CC(F)(F)F = 15
• Cc1nn(C)c(=O)c(-c2c(C)sc3ccc(Cl)cc23)c1O = 5
• Cc1ccc2ccc(C)c(-c3c(O)c(C)nn(C)c3=O)c2c1 = 30
• Cc1ccc(-c2c(O)c(Br)nn(C)c2=O)c2ccccc12 = 0
• Cc1ccc2sc(C)c(-c3c(O)c(C)nn(C)c3=O)c2c1 = 10
• CCOC(=O)Oc1c(C)nn(C)c(=O)c1-c1c(C)sc2ccc(C)cc12 = 5
• CCOC(=O)Oc1c(C)nn(C)c(=O)c1-c1c(C)sc2c(C)cc(C)cc12 = 0
• CCCC(=O)Oc1c(C)nn(C)c(=O)c1-c1c(C)sc2c(C)cc(C)cc12 = 0
• CCOC(=O)Oc1c(C)nn(C)c(=O)c1-c1c(CC)ccc2ccccc12 = 30

====

Test system: horseweed (Conyza canadensis)
Test: Test E greenhouse herbicide test, pre- and postemergence
Type: in vivo
Conditions: 125 g ai/ha, Postemergence; scale 0 to 100 (0 no effect, 100 complete control)
reported_metric: Plant response rating, Horseweed

- CC(=O)Oc1c(C)nn(C)c(=O)c1-c1ccc(F)c2ccccc12: 70
- CSCC(=O)Oc1c(C)nn(C)c(=O)c1-c1cccc2ccccc12: 70
- COc1nn(C)c(=O)c(-c2c(C)sc3ccc(Cl)cc23)c1O: 75
- CCOC(=O)Oc1c(C)nn(C)c(=O)c1-c1c(C)sc2c(C)cc(C)cc12: 85

====

Test system: barnyardgrass (Echinochloa crus-galli)
Test: Test A greenhouse herbicide test, pre- and postemergence
Type: in vivo
Details: Postemergence, 125 g ai/ha; 0 to 100 scale where 0 is no effect and 100 is complete control
Please use satisfied whenever Plant response rating, Barnyardgrass is not below 20, and not satisfied whenever it is.

- CCC(=O)Oc1c(C)nn(C)c(=O)c1-c1c(C(F)(F)F)ccc2ccccc12: not satisfied
- CCOC(=O)Oc1c(C)nn(C)c(=O)c1-c1c(C)ccc2ccccc12: satisfied
- Cc1ccc2ccccc2c1-c1c(O)c(C)nn(C)c1=O: satisfied
- CC(=O)Oc1c(C)nn(C)c(=O)c1-c1c(C)sc2cc(C)cc(C)c12: not satisfied
- Cc1ccc2ccccc2c1-c1c(OC(=O)C2CC2)c(C)nn(C)c1=O: not satisfied
- Cc1cc(C)c2sc(C)c(-c3c(OC(=O)OCCCl)c(C)nn(C)c3=O)c2c1: satisfied
- COC(=O)Oc1c(C)nn(C)c(=O)c1-c1c(C)sc2c(C)cc(C)cc12: satisfied
- CCOC(=O)Oc1c(C)nn(C)c(=O)c1-c1c(C)sc2c(C)cc(C)cc12: satisfied
- CCc1ccc2ccc(C)cc2c1-c1c(O)c(C)nn(C)c1=O: satisfied
- CCCC(=O)Oc1c(C)nn(C)c(=O)c1-c1c(C)sc2c(C)cc(C)cc12: satisfied
- Cc1nn(C)c(=O)c(-c2c(C)sc3ccc(Cl)cc23)c1O: satisfied
- CCC(=O)Oc1c(C)nn(C)c(=O)c1-c1c(C)sc2ccc(C)cc12: satisfied

====

System: foxtail, giant (giant foxtail, Setaria faberii)
Assay: Test C greenhouse herbicide test, pre- and postemergence
Format: in vivo
Details: Preemergence, 62 g ai/ha; scale 0 to 100, 0 is no effect, 100 is complete control
Documented Plant response rating, Foxtail, Giant across a set of molecules
reported_metric: Plant response rating, Foxtail, Giant

• CC(=O)Oc1c(C)nn(C)c(=O)c1-c1ccc(F)c2ccccc12 [Compound 90] = 75
• CCC(=O)Oc1c(C)nn(C)c(=O)c1-c1ccc(Br)c2ccccc12 [Compound 133] = 65
• Cc1ccc2ccccc2c1-c1c(O)c(Cl)nn(C)c1=O [Compound 125] = 100
• CCC(=O)Oc1c(C)nn(C)c(=O)c1-c1c(C)sc2ccc(C)cc12 [Compound 42] = 80
• Cc1ccc2ccc(C)c(-c3c(O)c(C)nn(C)c3=O)c2c1 [Compound 60] = 85
• COc1nn(C)c(=O)c(-c2c(C)ccc3ccccc23)c1OC(C)=O [Compound 138] = 85
• Cc1cc(C)c2sc(C)c(-c3c(OC(=O)OC(C)C)c(C)nn(C)c3=O)c2c1 [Compound 67] = 80
• COC(=O)Oc1c(Br)nn(C)c(=O)c1-c1c(C)ccc2ccccc12 [Compound 137] = 85
• CC(=O)Oc1c(C)nn(C)c(=O)c1-c1c(C)sc2ccc(C)cc12 [Compound 25] = 85

====

Tested on: pigweed (Amaranthus retroflexus)
Assay: Test C greenhouse herbicide test, pre- and postemergence
Format: in vivo
Settings: Preemergence, 31 g ai/ha; scale 0 to 100, 0 is no effect, 100 is complete control
# Plant response rating, Pigweed annotations
reported_metric: Plant response rating, Pigweed

• CCC(=O)Oc1c(C)nn(C)c(=O)c1-c1c(C)sc2ccc(C)cc12 = 100
• Cc1nn(C)c(=O)c(-c2c(C)sc3ccc(Cl)cc23)c1O = 100
• CC(=O)Oc1c(C)nn(C)c(=O)c1-c1c(C)cc(C)c2ccccc12 = 100
• COc1nn(C)c(=O)c(-c2c(C)ccc3ccccc23)c1OC(C)=O = 100
• C#CCOC(=O)Oc1c(C)nn(C)c(=O)c1-c1c(C)sc2ccc(C)cc12 = 75
• CCCC(=O)Oc1c(C)nn(C)c(=O)c1-c1c(C)sc2c(C)cc(C)cc12 = 98
• CCOC(=O)Oc1c(C)nn(C)c(=O)c1-c1c(CC)ccc2ccccc12 = 98
• Cc1ccc2ccccc2c1-c1c(O)c(Cl)nn(C)c1=O = 100
• CCC(=O)Oc1c(C)nn(C)c(=O)c1-c1c(C)sc2ccc(Cl)cc12 = 100
• CC(=O)Oc1c(C)nn(C)c(=O)c1-c1c(C)sc2ccc(C)cc12 = 100
